- tgt: T1, OC2N (human, UniProt O95948 330-485, N476A)
- T1 sequence: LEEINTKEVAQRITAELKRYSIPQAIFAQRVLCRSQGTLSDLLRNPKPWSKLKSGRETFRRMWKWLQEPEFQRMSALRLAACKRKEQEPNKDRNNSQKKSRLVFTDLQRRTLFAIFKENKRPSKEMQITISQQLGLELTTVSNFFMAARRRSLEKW
- test-description: ITC; ITC: 1X PBS pH 7.4, 0.005% Tween-20, 1 mM beta-ME, 25 C (also 12 and 30 C for heat capacity); BLI: 1X PBS, 0.5 mM TCEP, 0.005% Tween-20
- assay-setup: protein: recombinant; tags: His6 removed by TEV
endpoint-label: Kd (nM)
# output: bare number, implied unit nM

Prompt: I would be grateful if you could share the reported Kd for PEG10 promoter DNA (12mer duplex) (dsDNA) DNA 1: AGATCGATTTGC DNA 2: GCAAATCGATCT .
Response: 70
